Cited source: PubChem BioAssay

protocol-summary: Plasmodium falciparum growth inhibition, primary screen, strain 3D7, DAPI fluorescence, 100 nL (AID 1184);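 further: parasites grown inside human red blood cells in medium with human serum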
experimental-parameters: P. falciparum 3D7 growth, 3 d, higher = more signal
If the reported z-score equals or exceeds -1, assign Yes. If not, assign No.

Cc1ccccc1C(O)C1C=CC2C(=O)N(c3ccccc3)C(=O)C2N1Nc1ccccc1F (configuration not stated)
Yes
CCOC(=O)C[C@H]1[C@H](OC(=O)Cc2ccc3c(c2)OCO3)[C@@H](NC(=O)c2ccccc2)c2cc(OCCCO)ccc2N1C(=O)Cc1ccc(OC)cc1
No
COC(=O)[C@@H]1N=C(c2ccc(OCCCO)cc2)O[C@@H]1c1ccccc1CN=[N+]=[N-]
Yes
CO[C@H]1O[C@H](CO)[C@@H](OC(=O)Nc2ccc3c(c2)OCO3)[C@@H]2OC(=O)[C@@H](Cc3ccccc3)C/C=C/C[C@H](Cc3ccccc3)C(=O)O[C@@H]12
Yes

Form field: z-score at least -1? Entry: `C=C(CC1([C@@H](NP(=O)(c2ccccc2)c2ccccc2)[C@H]2C[C@@H]2CCN(C(=O)OCC)S(=O)(=O)c2ccc(C)cc2)CC1)c1ccccc1` No

Form field: z-score at least -1? Entry: O=C1OCCC=C[C@H]2OC34C=CCN(c5ccc(Cl)cc5)C(=O)[C@H]3N(CCO)C(=O)[C@@H]4C12 (some centres not stated) Yes
